Just for reference, ChEMBL document CHEMBL3797153 is where these values come from.

test system: Mus musculus; assay: In-vivo inhibition of TPH1 in mouse assessed as 5-HT level in intestinal mucosa at 150 mg/kg, po administered as single dose relative to control; type: functional; design: scale not given: the % may be the effect or the level left
parameter_measured: Activity

// worked examples, Activity included
INSERT INTO assay_data (smi, result) VALUES
  ('CCOC(=O)[C@@H](N)Cc1ccc(C(=O)/N=C(\N)NCc2c(Oc3ccccc3)cccc2N2CCCCC2)cc1', '62%'),
  ('CCOC(=O)[C@@H](N)Cc1ccc(C(=O)/N=C(\N)NCc2c(C)cccc2N2CCCCCC2)cc1', '62%'),
  ('Cc1cccc(N2CCCCCC2)c1CN/C(N)=N/C(=O)c1ccc(C[C@H](N)C(=O)O)cc1', '72%');

(Q) Which Activity value is on record for N/C(=N\C(=O)c1ccc(C[C@H](N)C(=O)O)cc1)NCc1c(Oc2ccccc2)cccc1N1CCCCC1 ?
(A) 80%
